# STUDY_SYSTEM: TYK2 (Homo sapiens)
# Sequence (P29597 871-1187 limits assumed): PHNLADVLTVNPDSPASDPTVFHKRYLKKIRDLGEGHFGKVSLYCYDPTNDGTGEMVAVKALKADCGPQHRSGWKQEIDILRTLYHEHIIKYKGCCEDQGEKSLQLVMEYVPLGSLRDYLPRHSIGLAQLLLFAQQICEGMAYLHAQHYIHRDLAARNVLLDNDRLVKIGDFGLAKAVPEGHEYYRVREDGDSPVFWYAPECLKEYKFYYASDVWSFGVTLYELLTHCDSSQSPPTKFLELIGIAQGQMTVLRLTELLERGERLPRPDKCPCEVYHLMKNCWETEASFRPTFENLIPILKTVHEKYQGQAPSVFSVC
# ASSAY: Functional assay of protein kinases (Caliper mobility shift), TYK2
# SETTINGS: ATP 20 μM, 45 min incubation
pIC50: −log10 of the molar value.
# key: entry, value: pIC50

Below: 4 molecules and their reported pIC50.
O=C(N[C@H]1CC[C@@H](C(=O)O)CC1)c1cccn2c(=O)c3cc(-c4ccccc4)ccc3nc12 : > 7.00
Cn1cnc(-c2ccc3nc4c(C(=O)N[C@H]5CC[C@@H](C(=O)O)CC5)cccn4c(=O)c3c2)c1 : > 7.00
O=C(NC12CCC(C(=O)O)(CC1)C2)c1cccn2c(=O)c3cc(C4CC4)ccc3nc12 : 6.00 to 7.00
NC(=O)c1ccc(-c2ccc3nc4c(C(=O)N[C@H]5CC[C@@H](C(=O)O)CC5)cccn4c(=O)c3c2)s1 : > 7.00

Read the next record carefully.
## Task Using the record for N#Cc1ccc(-c2ccc3nc4c(C(=O)N[C@H]5CC[C@@H](C(=O)O)CC5)cccn4c(=O)c3c2)cc1 , report its pIC50.
## Result > 7.00
